Reported inhibition is given for each of the following molecules.
test: UWB1.289_BRCA1 ovarian cancer growth, cell-based, BGB or cisplatin combinations (AID 1671459); details: UWB1.289 BRCA1 ovarian carcinoma, drug combinations, cisplatin combination, concentration series, at 5 µM, stronger effect = higher value
Measure Name: inhibition (%)

>>> result("COc1ccc(C(=O)CC2(O)C(=O)Nc3c(Cl)ccc(Cl)c32)cc1 (stereo not drawn)")
51.1
>>> result("O=C(CCCCCCNC(=O)c1cnc(N(c2ccccc2)c2ccccc2Cl)nc1)NO")
83
>>> result("COc1cc2ncnc(-n3nc(-c4ccccn4)nc3N)c2cc1OC")
9.66
>>> result("CC(=O)Nc1nc(C)c(-c2ccc(Cl)c(S(=O)(=O)NCCO)c2)s1")
12.2
>>> result("N=C1CCCN1Cc1[nH]c(=O)[nH]c(=O)c1Cl")
25.3
>>> result("CCCCc1nc2cc(/C=C/C(=O)NO)ccc2n1CCN(CC)CC")
127
>>> result("O=C(/C=C/c1cccc(S(=O)(=O)Nc2ccccc2)c1)NO")
120
>>> result("O=c1[nH]cnc2ccccc12")
-4.56
>>> result("C=C1[C@H](CO)[C@@H](O)C[C@@H]1n1cnc2c(=O)[nH]c(N)nc21")
-7.68
>>> result("Nc1nc2n[nH]nc2c(=O)[nH]1")
92.1
>>> result("CN[C@@H]1CN(c2ccc3c(=O)c(C(=O)O)cn(-c4nccs4)c3n2)C[C@H]1OC")
98.3
>>> result("Nc1ccccc1NC(=O)c1ccc(CNc2nccc(-c3cccnc3)n2)cc1")
120
>>> result("O=C(O)[C@H](Cc1c[nH]c2ccccc12)N1C(=O)c2ccccc2C1=O")
-28.9
>>> result("COc1ccc(-n2c(SCCCN3C(=O)c4cccc5cccc(c45)C3=O)nnc2-c2ccncc2)cc1")
13.2
>>> result("Nc1ccc(-c2ccc3ncc4ccc(=O)n(-c5cccc(C(F)(F)F)c5)c4c3c2)cn1")
104
>>> result("O=c1cc(N2CCOCC2)oc2c(-c3cccc4c3sc3ccccc34)cccc12")
12.1
>>> result("O=C(/C=C/c1ccc(CN(CCO)CCc2c[nH]c3ccccc23)cc1)NO")
130
>>> result("c1cc(Nc2cc(C3CC3)[nH]n2)nc(Nc2ccc3nc[nH]c3c2)n1")
72.2
>>> result("Nc1nc(OCc2cc(Br)cs2)c2[nH]cnc2n1")
8.18
>>> result("Nc1ncnc2c1c(-c1cnc3[nH]ccc3c1)nn2C1CCCC1")
106
>>> result("O=c1cc(N2CCOCC2)oc2c1ccc1ccccc12")
4.97
>>> result("CS(=O)(=O)c1ccc(-c2nnc(/C=C/c3nnc(-c4ccc(C#N)cc4)o3)n2-c2ccccc2Cl)nc1")
17.8
>>> result("CC(C)OC(=O)[C@H](C)N[P@](=O)(OC[C@H]1O[C@@H](n2ccc(=O)[nH]c2=O)[C@](C)(F)[C@@H]1O)Oc1ccccc1")
20
